We begin with a simple list: items and their reported T/C.
test system: P388 leukemia ip, CD2F1 mice, survival T/C; assay: NCI In Vivo Anticancer Drug Screen. Data for tumor model P388 Leukemia (intraperitoneal) in CD2F1 (CDF1) mice; conditions: endpoint: median survival time; dose: 200.0 mg/kg/injection; schedule: Q01DX005 (ip); vehicle: saline with Tween-80; higher = longer survival
Inconclusive results and toxic doses are left out. Peptide text beside a SMILES is read from it. * marks the point of attachment. Cbz = O=C(OCc1ccccc1)*

Compound | Result
CN1c2ccccc2C2CCCCC21 (centres undefined) | 111 % of control
N=C(N)c1ccc(NC(=O)c2ccc(C(=O)Nc3ccc(C(=N)N)cc3)c(N)c2)cc1 | 87 % of control
O=C(O)C1CC(Cl)C(O)C(Cl)C1 (centres undefined) | 100 % of control

Problem: Can you look up the measured T/C of Oc1[nH]c2ccccc2c1N=Nc1nnc(-c2ccccc2)c(-c2ccccc2)n1 for me?
Solution: 101 % of control

Problem: Can you look up the measured T/C of O=C(NC(Cc1ccc(O)cc1)C(=O)NC(CO)C(=O)O)OCc1ccccc1 (stereo not drawn) (Cbz-Tyr-Ser-OH; configuration not given here) for me?
Solution: 106 % of control

Problem: Can you look up the measured T/C of O=C1C(c2[nH]c3cccc(Cl)c3c2O)=Nc2cccc(Cl)c21 for me?
Solution: 109 % of control

Problem: Can you look up the measured T/C of c1ccc2c(c1)c1cccc3sc4cccc2c4c31 for me?
Solution: 92 % of control

Problem: Can you look up the measured T/C of CCN(CC)C(=S)n1nc(C)c(N=Nc2cccc(Cl)c2Cl)c1C for me?
Solution: 94 % of control

Problem: Can you look up the measured T/C of CC(c1ccc(OCc2ccccc2)cc1)c1cc2c(cc1OCCO)OCO2 (centres undefined) for me?
Solution: 100 % of control
